Reported log10 of IC50 by item:
Test system: Entamoeba histolytica
Assay info: Antiamoebic activity against trophozoite stage of Entamoeba histolytica HM-1:IMSS assessed as growth inhibition after 48 hrs by microdilution method
Format: functional, organism-based
Measurement context: Entamoeba histolytica, HM-1:IMSS, 48 h; read-out: IC50
Test readout: log10 of IC50 (log10 of the value in µM)

Smiles repr: COC(=O)c1ccc2c(c1)[n+]([O-])c(C(C)=O)c(C(F)(F)F)[n+]2[O-]
Tested system: Entamoeba histolytica
log10 of IC50: 0.18
//
Smiles repr: COC(=O)c1ccc2c(c1)[n+]([O-])c(C(=O)c1cccs1)c(C(F)(F)F)[n+]2[O-]
Tested system: Entamoeba histolytica
log10 of IC50: -0.46
//
Smiles repr: CCOC(=O)c1c(-c2ccccc2)[n+]([O-])c2ccc(C(=O)OC)cc2[n+]1[O-]
Tested system: Entamoeba histolytica
log10 of IC50: 1.09
//
Smiles repr: CCOC(=O)Cc1c(C(=O)OCC)[n+]([O-])c2cc(C(=O)OC)ccc2[n+]1[O-]
Tested system: Entamoeba histolytica
log10 of IC50: 0.28
//
Smiles repr: CCOC(=O)c1ccc2c(c1)[n+]([O-])c(C(=O)c1cccs1)c(C(F)(F)F)[n+]2[O-]
Tested system: Entamoeba histolytica
log10 of IC50: 0.40
//
Smiles repr: COC(=O)c1ccc2c(c1)[n+]([O-])c(C(=O)OC)c(C)[n+]2[O-]
Tested system: Entamoeba histolytica
log10 of IC50: 0.62
